# Kd values compiled below
- assay system: T1, EsCas13d, nuclease-dead (Eubacterium siraeum, UniProt B0MS50, R295A;H300A;R849A;H854A)
- T1 sequence: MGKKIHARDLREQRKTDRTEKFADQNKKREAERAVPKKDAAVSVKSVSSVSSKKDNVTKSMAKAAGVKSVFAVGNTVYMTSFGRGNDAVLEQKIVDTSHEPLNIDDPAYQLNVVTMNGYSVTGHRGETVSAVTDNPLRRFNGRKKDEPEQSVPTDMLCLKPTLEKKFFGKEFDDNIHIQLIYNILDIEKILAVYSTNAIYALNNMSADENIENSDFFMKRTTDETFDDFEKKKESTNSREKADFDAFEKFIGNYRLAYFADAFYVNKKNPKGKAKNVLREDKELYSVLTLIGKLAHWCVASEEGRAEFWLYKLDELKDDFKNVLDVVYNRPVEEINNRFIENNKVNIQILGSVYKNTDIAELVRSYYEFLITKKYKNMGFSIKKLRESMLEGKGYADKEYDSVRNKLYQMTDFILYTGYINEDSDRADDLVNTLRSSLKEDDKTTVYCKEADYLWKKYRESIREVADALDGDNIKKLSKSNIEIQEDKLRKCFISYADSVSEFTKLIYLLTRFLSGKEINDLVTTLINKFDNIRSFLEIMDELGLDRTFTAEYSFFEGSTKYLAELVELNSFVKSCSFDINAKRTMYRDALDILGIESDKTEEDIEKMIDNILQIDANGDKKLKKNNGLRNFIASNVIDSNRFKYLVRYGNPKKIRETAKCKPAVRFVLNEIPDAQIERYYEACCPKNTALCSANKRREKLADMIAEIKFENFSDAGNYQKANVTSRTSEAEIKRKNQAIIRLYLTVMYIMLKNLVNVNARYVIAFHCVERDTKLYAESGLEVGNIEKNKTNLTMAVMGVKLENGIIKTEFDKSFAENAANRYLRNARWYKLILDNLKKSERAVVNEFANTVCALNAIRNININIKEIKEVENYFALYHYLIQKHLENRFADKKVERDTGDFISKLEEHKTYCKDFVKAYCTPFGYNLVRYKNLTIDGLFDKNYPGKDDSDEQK
- assay remarks: crRNA (strand 1, pre-loaded); Mg2+; 40 mM Tris-HCl pH 7.5, 150 mM NaCl, 6 mM MgCl2, 1 mM DTT, 0.1% Tween-20, 0.2 mg/ml BSA; 25 C; 10 min per concentration, then washed
- recorded conditions: tags: His6-TwinStrep-SUMO cleaved; N-terminal SNAP kept (SNAP-Surface 488); label: 3' end held by stalled T7 RNA polymerase
observable: Kd (µM)

| binder | unit symbol | recorded value |
| --- | --- | --- |
| target 1 C7A,G13U (mixed) RNA 1: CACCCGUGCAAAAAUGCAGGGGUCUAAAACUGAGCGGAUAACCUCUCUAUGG RNA 2: GGGAAUGGAUCCACAUCUACGAAUUCGUACCAUAGAGAUGUUAUACGCUCACCGAGAUCGGAAGAGCACACGU | µM | 0.059 |
| target 2 MT 5'PFS AAC 3'PFS AAC (mixed) RNA 1: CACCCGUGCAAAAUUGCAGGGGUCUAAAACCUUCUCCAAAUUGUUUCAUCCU RNA 2: GGGAAUGGAUCCACAUCUACGAAUUCAACAGGAUGAAACAAUUUGGAGAAGAACAGAUCGGAAGAGCACACGU | µM | 0.0088 |
| target 3 insU 3' of 3,insA 3' of 3 (mixed) RNA 1: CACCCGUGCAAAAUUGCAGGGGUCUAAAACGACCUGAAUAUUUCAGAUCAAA RNA 2: GGGAAUGGAUCCACAUCUACGAAUUCGUUUUUGAUCUGAAAUAUUCAGGUAUCUGCAGAUCGGAAGAGCACACGU | µM | 0.0287 |
| target 1 A1U,G15U (mixed) RNA 1: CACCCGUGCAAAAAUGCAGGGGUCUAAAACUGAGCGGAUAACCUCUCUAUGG RNA 2: GGGAAUGGAUCCACAUCUACGAAUUCGUACCAUAGAUAGGUUAUCCGCUCUCCGAGAUCGGAAGAGCACACGU | µM | 0.0259 |
